protocol.notes: clinical
cond: human, epithelial lining fluid (ELF) versus total-drug plasma, iv, 10 mg/kg, ELF penetration ratio (total drug), ELF AUC0-24/total-drug plasma AUC0-24, healthy subjects, Study I6424-108a; mean (SD), N = 20; SD
readout.label: Kp
One number for each entry.

Record CCCCCCCCCCNCCN[C@@]1(C)C[C@H](O[C@H]2[C@H](Oc3c4cc5cc3Oc3ccc(cc3Cl)[C@@H](O)[C@@H](NC(=O)[C@@H](CC(C)C)NC)C(=O)N[C@@H](CC(N)=O)C(=O)N[C@H]5C(=O)N[C@H]3C(=O)N[C@H](C(=O)N[C@H](C(=O)O)c5cc(O)c(CNCP(=O)(O)O)c(O)c5-c5cc3ccc5O)[C@H](O)c3ccc(c(Cl)c3)O4)O[C@H](CO)[C@@H](O)[C@@H]2O)O[C@@H](C)[C@H]1O , field Kp: 0.073

----------
protocol.notes: clinical
cond: human, epithelial lining fluid (ELF) / plasma, iv, 10 mg/kg, ELF penetration ratio (free drug), ELF AUC0-24/(0.1 total-drug plasma AUC0-24); median, N = 20
readout.label: Kp uu
Give bare numbers.

Record CCCCCCCCCCNCCN[C@@]1(C)C[C@H](O[C@H]2[C@H](Oc3c4cc5cc3Oc3ccc(cc3Cl)[C@@H](O)[C@@H](NC(=O)[C@@H](CC(C)C)NC)C(=O)N[C@@H](CC(N)=O)C(=O)N[C@H]5C(=O)N[C@H]3C(=O)N[C@H](C(=O)N[C@H](C(=O)O)c5cc(O)c(CNCP(=O)(O)O)c(O)c5-c5cc3ccc5O)[C@H](O)c3ccc(c(Cl)c3)O4)O[C@H](CO)[C@@H](O)[C@@H]2O)O[C@@H](C)[C@H]1O [telavancin] , field Kp uu: 0.683

----------
protocol.notes: clinical
cond: human, epithelial lining fluid (ELF) / plasma, iv, 10 mg/kg; SD
readout.label: Kp uu
Give bare numbers.

Record CCCCCCCCCCNCCN[C@@]1(C)C[C@H](O[C@H]2[C@H](Oc3c4cc5cc3Oc3ccc(cc3Cl)[C@@H](O)[C@@H](NC(=O)[C@@H](CC(C)C)NC)C(=O)N[C@@H](CC(N)=O)C(=O)N[C@H]5C(=O)N[C@H]3C(=O)N[C@H](C(=O)N[C@H](C(=O)O)c5cc(O)c(CNCP(=O)(O)O)c(O)c5-c5cc3ccc5O)[C@H](O)c3ccc(c(Cl)c3)O4)O[C@H](CO)[C@@H](O)[C@@H]2O)O[C@@H](C)[C@H]1O , field Kp uu: 0.73
